system: Enterococcus faecium; assay type: cell-based, Enterococcus faecium ATCC 19434
Ends that are not written are not given here.
I'd appreciate it if you could supply MIC E. faecium values for the items below.

Go through the items and report each one's MIC E. faecium.
1. FRFKRKLPKYLLF-NH2 [HBP-3]
2. RWHLTHRPKTGYIRVLVH-NH2 [HBP-1]
3. GWKDKKSYRWFLQHRPQVGYIRVRFY-NH2 [HBP-4]
4. HNLFRKLTHRLFRRNFGYTLRSV-NH2 [HBP-5]
5. RFYLSKKKWVMVP-NH2 [HBP-2]

>100/ > 100 µM
≥100/ > 100 µM
12.5 µM
3.1 µM
>100/ > 100 µM

// provenance: paper PMC12223310
